- Tested on: SW-620 colon
- measurement.protocol: NCI tumour cell line growth inhibition, 48 h
# Lookup of reported TGI keyed by entry

Reported TGI ( CCc1cccc(C)c1NC(=O)CC1Sc2ccccc2NC1=O (stereo unspecified) ) = > 100 µM

Reported TGI ( CC(SC1=CC(=O)c2c(O)ccc(O)c2C1=O)C(=O)O (stereo unspecified) ) = > 55.6 µM

Reported TGI ( NC1CCC(c2cc3ccccc3s2)(N2CCCCC2)CC1 (stereo unspecified) ) = 3.2 µM

----------
# Lookup of reported TGI keyed by entry
- Tested on: MDA-MB-231 breast
- measurement.protocol: NCI tumour cell line growth inhibition, 48 h

1) O=C(Nc1ccc(Br)cc1)c1cc(Br)cc(Br)c1O    6.28 µM
2) CCC(=O)N1C/C(=C/c2ccc(OC)cc2)C(=O)/C(=C/c2ccc(OC)cc2)C1    4.28 µM
3) CC[C@@]1(OC(=O)CCC(=O)O)C(=O)OCc2c1cc1n(c2=O)Cc2cc3ccccc3nc2-1    > 27.6 µM
4) CCOC(=O)/C=C(/C(=O)OCC)n1cc(C)c(=O)n(Cc2cnnn2CCCCOC(C)=O)c1=O    > 100 µM
5) O=Nc1c2cccnc2n2nnc3ccc(Cl)cc3c12    7.76 µM

Reported TGI ( CCCCNC(=S)Nc1nc(C(=O)NNS(=O)(=O)c2ccccc2)cs1 ) = 68.8 µM

Reported TGI ( CCN(CC)CC(C)Nc1ccc(C)c2sc3ccccc3c(=O)c12 (stereo unspecified) ) = 8.99 µM

Reported TGI ( CC(O)C(NC(=O)C(CS)NC(=O)C(CO)NC(=O)C(CCCCN)NC(=O)C(Cc1c[nH]c2ccccc12)NC(=O)C(Cc1ccc(O)cc1)NC(=O)C(CS)NC(=O)C(N)Cc1ccccc1)C(N)=O (stereo unspecified) ) = > 25 µM

Reported TGI ( CCN(CC)C(=S)SSC1CCCCC1 ) = 37.1 µM

Reported TGI ( COc1cccc(-c2cc(=O)c3cc(C)cnc3[nH]2)c1 ) = > 100 µM

Reported TGI ( N#CC1C(N)=NNC1c1ccc(-c2ccc(-c3nc4ccccc4o3)cc2)o1 (stereo unspecified) ) = 65.8 µM

Reported TGI ( CC(=O)O[C@H]1/C(=C/c2ccc(N(C)C)cc2)C[C@H]2[C@@H]3CC=C4C[C@@H](N5CCCC5)CC[C@]4(C)[C@H]3CC[C@]12C ) = > 100 µM

Reported TGI ( N#CC(c1ccccc1)c1cccc2ccccc12 (stereo unspecified) ) = > 100 µM

Reported TGI ( COc1cc2[nH]c(-c3ccccc3)cc(=O)c2cc1OC ) = > 87.3 µM

Reported TGI ( COC(=O)CC1C2CC3C(C2=O)C13 (stereo unspecified) ) = > 100 µM

Reported TGI ( C/C(=C\CCC1=CC(=O)OC1)CC[C@@H]1[C@H]2C(=O)CC(C)[C@@]3(C)CC[C@]1(C)[C@@]23C (stereo partly specified) ) = > 10 µM

Reported TGI ( Clc1ccc(OCc2nnc(CCCCCCCCc3nnc(COc4ccc(Cl)cc4Cl)o3)o2)c(Cl)c1 ) = > 100 µM

Reported TGI ( O=C(c1cccs1)N(C(=O)N1CCC(c2ccccc2)CC1)c1ccccc1 ) = > 100 µM

----------
# Lookup of reported TGI keyed by entry
- Tested on: NCI-H23 lung
- measurement.protocol: NCI tumour cell line growth inhibition, 48 h
All answers are understood in µM, so give the number only.

1) O=C(N=Nc1c(O)[nH]c2ccccc12)c1ccccc1O    92

Reported TGI ( Cn1c(N/N=C/c2ccc(Cl)cc2)nc(-c2ccc(Cl)cc2)c(C#N)c1=O ) = 38.6

----------
- Test system: HL-60(TB) leukemia
Hi! Could you answer with just one of these? yes = active, no = inactive

Illustrative cases are given below, each with its answer.
1. N#CC1C(N)=NNC1c1ccc(-c2ccc(-c3nc4ccccc4o3)cc2)o1 (stereo not drawn)    no
2. O=C(/C=C/c1ccc([N+](=O)[O-])o1)NNC(=O)c1cc2ccccc2cc1O    no
3. CCC(=O)N1C/C(=C/c2ccc(OC)cc2)C(=O)/C(=C/c2ccc(OC)cc2)C1    no
4. CCCCS(=N)(=O)CC[C@H](N)C(=O)O (stereo partly drawn)    no

Hi, do you know how CCOC(=O)/C(C1=CC(=O)C(=O)c2ccccc21)=C(/C)NCc1ccccc1 came out in this test?
no

----------
- Tested on: SK-OV-3 ovarian
- measurement.protocol: NCI tumour cell line growth inhibition, 48 h
# Lookup of reported TGI keyed by entry

1. Nc1ncnc2c1ncn2C1OC(C(=O)O)C(O)C1O (centres undefined)    > 100 µM

Reported TGI ( Cc1cc(O)cc(C)c1/C=C/c1cncc(C(=O)N(C)C)c1 ) = > 25 µM

Reported TGI ( COc1ccc(-c2cn3ccnc3c(-c3ccc4ncn(C5CCCCC5)c4c3)n2)cc1 ) = 7.64 µM

Reported TGI ( Cn1nnnc1[N-]Cc1ccccc1.[Au+].c1ccc([PH+](c2ccccc2)c2ccccc2)cc1 ) = 30.3 µM

----------
- System: SK-MEL-28 melanoma
- measurement.protocol: NCI tumour cell line growth inhibition, 48 h
# Lookup of reported TGI keyed by entry

1. C/C(=C\CCC1=CC(=O)OC1)CC[C@@H]1[C@H]2C(=O)CC(C)[C@@]3(C)CC[C@]1(C)[C@@]23C (stereo partly specified)    > 10 µM
2. CN(C)CN1C(=O)S/C(=C2\C(=O)N(CN(C)C)c3ccccc32)C1=O    > 100 µM

With SK-MEL-28 melanoma as the test system, O=C1C=C(c2cc(Br)c(O)c(Br)c2)/C(=C/c2cc(Br)c(O)c(Br)c2)O1 showed TGI of > 75 µM

With SK-MEL-28 melanoma as the test system, C=C[C@H]1CN2CC[C@H]1C[C@@H]2[C@@H](O)c1ccnc2ccccc12 showed TGI of > 100 µM

----------
- Tested on: MALME-3M melanoma
- measurement.protocol: NCI tumour cell line growth inhibition, 48 h
# Lookup of reported TGI keyed by entry

Completed entries (count: 4):
1. COc1ccc(-c2cn3c(n2)sc2cc(C)ccc23)cc1    > 100 µM
2. Fc1cccc2nc(-c3ccccc3)cc(OCc3ccccc3)c12    > 100 µM
3. CCCc1ccc(N=Cc2cc(OC)c(OC)c(OC)c2)cc1    > 100 µM
4. COc1ccc(N=C/C=C/Nc2ccc(OC)cc2)cc1    23.9 µM

Consider the additional compound presented here.
Reported TGI ( CC(=O)O[C@H]1/C(=C/c2ccc(N(C)C)cc2)C[C@H]2[C@@H]3CC=C4C[C@@H](N5CCCC5)CC[C@]4(C)[C@H]3CC[C@]12C ) = > 100 µM

----------
- System: TK-10 renal
- measurement.protocol: NCI tumour cell line growth inhibition, 48 h
# Lookup of reported TGI keyed by entry
All answers are understood in µM, so give the number only.

Completed entries (count: 2):
1. OC1CN=C2c3ccccc3C(O)(c3ccc(Cl)cc3)N2C1 (stereo unspecified)    65.7
2. CCCCCCCCCCCC(=O)C1=C(O)C(O)CCC1=O (stereo unspecified)    49

Consider the additional compound presented here.
Reported TGI ( Cn1c(N/N=C/c2ccc(Cl)cc2)nc(-c2ccc(Cl)cc2)c(C#N)c1=O ) = 76.3

----------
# Lookup of reported TGI keyed by entry
- Test system: SF-268 CNS
- measurement.protocol: NCI tumour cell line growth inhibition, 48 h

1) CCOC(=O)/C=C(/CN1C(=O)c2ccccc2C1=O)c1ccccc1    > 100 µM
2) CCOC(=O)/C(C1=CC(=O)C(=O)c2ccccc21)=C(/C)NCc1ccccc1    3.43 µM
3) CC(SC1=CC(=O)c2c(O)ccc(O)c2C1=O)C(=O)O (stereo unspecified)    > 75.1 µM
4) C=C1C(O)C2C(=C(CC(C)C)C13CC3)C(=O)C(C)(C)C2OC (stereo unspecified)    > 100 µM
5) COc1cccc(C2c3cc4c(cc3OC(N3CCOCC3)C2C)OCO4)c1O (stereo unspecified)    > 79.1 µM

Consider the additional compound presented here.
Reported TGI ( CC(Nc1cc(Cl)cc(Cl)c1)c1ccncc1 (stereo unspecified) ) = 51.9 µM

----------
# Lookup of reported TGI keyed by entry
- System: SK-MEL-28 melanoma
- measurement.protocol: NCI tumour cell line growth inhibition, 48 h

Completed entries (count: 5):
1) Cn1c2ccccc2n2c3nc4ccccc4nc3c(C#N)c12    > 100 µM
2) COc1cc2c(cc1OCCCC(=O)Nc1cc(C(=O)Nc3cc(C(=O)NCCCN(C)C)n(C)n3)n(C)n1)N=CC1CCCN1C2=O (stereo unspecified)    30.4 µM
3) O=C1NC(N2CCOCC2)=N/C1=C\c1ccccc1O    > 100 µM
4) CSc1n[n+](C)cc(N)c1N    > 100 µM
5) Cc1c2ncccc2c(C)c2c1[nH]c1ccccc12    28.9 µM

With SK-MEL-28 melanoma as the test system, CN(C)c1ccc(C(c2ccc(N(C)C)cc2)c2ccc([N+](=O)[O-])cc2)cc1 showed TGI of > 100 µM
